Some compounds, each annotated with its measured TGI.
test system: 786-0 renal; test: NCI tumour cell line growth inhibition, 48 h

# count of solved cases: 10
C1=NN2C(c3ccccc3)=NOC2C2C(c3ccccc3)=NOC12 (stereo unspecified); > 100 µM
NC(=O)c1c[nH]c2ncnc(N)c12; > 100 µM
CC(=O)OCc1nnn2c1C(OC(C)=O)CC2 (stereo unspecified); > 100 µM
Cc1ccc(NC(=S)NNC(=S)Nc2ccc(C)cc2)cc1; > 100 µM
c1ccc2c(c1)nc1ccccn12; > 100 µM
CCC1=CC(OCc2ccccc2)C(CCN(Cc2ccccc2)C(=O)OCc2ccccc2)C1 (stereo unspecified); 40.1 µM
Cc1cc2c(cc1Cl)SC(NNCCO)=NS2(=O)=O; > 100 µM
Cc1cc(S(=O)(=O)Nc2nc3ccccc3c(=O)n2Cc2ccco2)c(S)cc1Cl; > 100 µM
CSC12c3cc(C)n(-c4ccc(I)cc4)c3CC(C)(C)CN1C(=O)C2Oc1ccccc1 (stereo unspecified); > 100 µM
CSC1=CC(=O)c2ccccc2C1=O; 14.1 µM

Any idea what TGI was measured for Cc1ccc2ncnc(N(C)C3CCCCC3)c2c1 ?
> 100 µM

What do you get for CCCCC/C=C\C=C\CCCCCCCCC(=O)OC ?
> 100 µM

What do you get for C1CSCCSCCSCCSCCS1 ?
> 100 µM

What do you get for O=c1[nH]c(=O)n([C@H]2C[C@@H](CO)[C@@H](O)C2)cc1I ?
> 100 µM

What do you get for COc1ccccc1/C=C1\CCC(Cc2ccccc2)(CN(C)C)C1=O (stereo unspecified) ?
23.4 µM

What do you get for O=C1/C(=C/c2ccc(Cl)cc2)CN(Cc2cn(CCCNc3ccnc4cc(Cl)ccc34)nn2)C/C1=C\c1ccc(Cl)cc1 ?
2.06 µM

What do you get for COc1cc(/C=C2\CCC/C(=C\c3cc(CN4CCCC4)c(O)c(OC)c3)C2=O)cc(CN2CCCC2)c1O ?
14.7 µM

What do you get for O=C(O)C1=Cc2cccc3cccc(c23)C1=O ?
> 100 µM

What do you get for CC[O-].CC[O-].O=C1C=C([O-])C(=O)c2ccccc21.O=C1C=C([O-])C(=O)c2ccccc21.[Ti+4] ?
> 100 µM

What do you get for c1ccc(-c2cc3nc4ccccc4nc3cc(-c3ccccc3)[nH][nH]2)cc1 ?
> 100 µM

What do you get for Cc1csc2nc(-c3cc([N+](=O)[O-])c(Cl)cc3Cl)c(/C=N/N=C(N)N)n12 ?
49.3 µM

Values were extracted from PubChem BioAssay (NCI).
